- target_desc: CbFic2 (Coxiella burnetii, UniProt Q83DB6 1-378)
- measurement_protocol: fluorescence anisotropy; Hill 1.354
- experimental_setup: protein: recombinant; tags: N-terminal G-H-M remnant after TEV cleavage; label: 5'-FITC on one strand
assay_metric: Kd

Query block: Return value of Kd for input 5'-FITC 20 bp dsDNA (40% GC) (dsDNA) DNA 1: AGTTTAGTGCGCTAATCTGA DNA 2: TCAGATTAGCGCACTAAACT , no commentary.
Result block: 220 nM

// provenance: paper PMC10628234
